B1: FUT8 (parent)
chain: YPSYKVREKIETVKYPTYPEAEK

variants of: B1; experiment: protein stability index of a GFP-peptide fusion (GPS, HEK-293T) (PSI 1-6); higher = more stable; conditions: c terminus: native;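 note: lentivirally expressed fusions sorted by FACS into six bins by GFP to DsRed ratio, PSI derived from sequencing read proportions per bin multiplied by bin number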
Give protein stability index for every item shown.
Give bare numbers.

• YPSYKVREKIETVTYPTYPEAEK [K14T] = 3.61
• YPSYRVREKIETVKYPTYPEAEK [K5R] = 4.32
• YPSYKVREKKETVKYPTYPEAEK [I10K] = 4.57
• YPKYKVREKIETVKYPTYPEAEK [S3K] = 4.78

Respectfully, I request protein stability index for each entry included below.
1. YPSCKVREKIETVKYPTYPEAEK [Y4C]
2. YPSYKVREKHETVKYPTYPEAEK [I10H]
3. APSYKVREKIETVKYPTYPEAEK [Y1A]
4. YPRYKVREKIETVKYPTYPEAEK [S3R]

1. 4.13
2. 4.27
3. 5.42
4. 3.79
